system: Vascular endothelial growth factor receptor 1 (Homo sapiens) (UniProt P17948);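 also: values are mean percent inhibition of FLT1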
Sequence (P17948 whole entry): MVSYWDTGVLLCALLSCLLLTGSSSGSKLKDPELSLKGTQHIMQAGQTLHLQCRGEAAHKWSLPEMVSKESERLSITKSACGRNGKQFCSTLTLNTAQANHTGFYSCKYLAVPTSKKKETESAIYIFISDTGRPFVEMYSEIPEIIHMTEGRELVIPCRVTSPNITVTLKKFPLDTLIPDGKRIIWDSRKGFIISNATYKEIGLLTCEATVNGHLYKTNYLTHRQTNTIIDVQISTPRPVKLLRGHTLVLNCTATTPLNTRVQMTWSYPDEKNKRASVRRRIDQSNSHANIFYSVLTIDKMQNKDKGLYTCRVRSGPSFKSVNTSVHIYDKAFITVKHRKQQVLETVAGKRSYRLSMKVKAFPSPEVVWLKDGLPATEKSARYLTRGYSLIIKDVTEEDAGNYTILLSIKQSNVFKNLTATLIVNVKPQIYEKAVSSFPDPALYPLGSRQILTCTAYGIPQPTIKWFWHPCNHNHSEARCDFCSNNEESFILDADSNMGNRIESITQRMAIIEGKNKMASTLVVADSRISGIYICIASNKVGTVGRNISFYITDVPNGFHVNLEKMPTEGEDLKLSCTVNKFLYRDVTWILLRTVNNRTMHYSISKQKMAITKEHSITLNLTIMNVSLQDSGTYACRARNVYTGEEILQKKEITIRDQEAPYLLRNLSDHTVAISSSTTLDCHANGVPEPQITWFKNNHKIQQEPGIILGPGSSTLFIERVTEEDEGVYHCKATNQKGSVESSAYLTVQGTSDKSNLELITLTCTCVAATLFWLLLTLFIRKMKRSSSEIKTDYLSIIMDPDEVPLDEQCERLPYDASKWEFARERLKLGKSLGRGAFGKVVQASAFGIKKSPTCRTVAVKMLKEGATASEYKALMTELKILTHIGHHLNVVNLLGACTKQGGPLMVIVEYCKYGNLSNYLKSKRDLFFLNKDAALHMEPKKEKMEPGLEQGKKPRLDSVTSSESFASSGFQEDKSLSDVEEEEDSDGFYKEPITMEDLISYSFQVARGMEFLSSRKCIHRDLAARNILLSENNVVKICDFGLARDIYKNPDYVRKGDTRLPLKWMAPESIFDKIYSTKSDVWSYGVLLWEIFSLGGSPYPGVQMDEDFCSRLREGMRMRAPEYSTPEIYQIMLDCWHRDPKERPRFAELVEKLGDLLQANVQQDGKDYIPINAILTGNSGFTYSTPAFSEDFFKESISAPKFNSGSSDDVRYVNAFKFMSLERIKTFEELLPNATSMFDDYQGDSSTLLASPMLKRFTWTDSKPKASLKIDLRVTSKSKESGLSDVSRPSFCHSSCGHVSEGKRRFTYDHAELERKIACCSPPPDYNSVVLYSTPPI
protocolConditions: at 0.1 µM
Items are presented alongside their recorded inhibition.
measuredQuantity: inhibition (%)

COc1cccc(-n2ncc3c(N/N=C/c4ccc(S(C)(=O)=O)cc4)ncnc32)c1: 5.44
CN(C)C(=O)O[C@@H]1CN[C@@H](C#Cc2cc3ncnc(Nc4ccc(OCc5cccc(F)c5)c(Cl)c4)c3s2)C1: -0.77
O=C(Nc1ccc(Oc2ccc3[nH]c(NC(=O)c4ccco4)nc3c2)cc1)Nc1cc(C(F)(F)F)ccc1F: 23.6
O=C1Nc2ccc(-c3cccnc3)cc2C1=Cc1cc(Br)c(O)c(Br)c1: 2.53
NS(=O)(=O)c1ccc(N/N=C2\C(=O)Nc3ccc(Cl)cc32)cc1: 2.91
NC(=O)c1cccc(Nc2nccc(Nc3cccc(F)c3)n2)c1: 1.29
CN(C)CCCn1c(-c2nonc2N)nc2cnccc21: 1.09
Oc1cccc(-c2nc(-c3ccccc3)[nH]c2-c2ccncc2)c1: 10.6
ON=C1CCc2cc(-c3nc(C4CCNCC4)[nH]c3-c3ccncc3)ccc21: 0.48
Cc1ccc(NC(=O)CC2CC2)cc1-c1ccc(C(=O)NCC2CC2)cc1: -0.36

* * *

system: Protein kinase C beta type (Homo sapiens) (UniProt P05771);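 also: PKC-beta1 splice variant of the enzyme, figure reported as mean inhibition, measured within the GSK PKIS kinase profiling panel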
Sequence (P05771 2-671 limits assumed): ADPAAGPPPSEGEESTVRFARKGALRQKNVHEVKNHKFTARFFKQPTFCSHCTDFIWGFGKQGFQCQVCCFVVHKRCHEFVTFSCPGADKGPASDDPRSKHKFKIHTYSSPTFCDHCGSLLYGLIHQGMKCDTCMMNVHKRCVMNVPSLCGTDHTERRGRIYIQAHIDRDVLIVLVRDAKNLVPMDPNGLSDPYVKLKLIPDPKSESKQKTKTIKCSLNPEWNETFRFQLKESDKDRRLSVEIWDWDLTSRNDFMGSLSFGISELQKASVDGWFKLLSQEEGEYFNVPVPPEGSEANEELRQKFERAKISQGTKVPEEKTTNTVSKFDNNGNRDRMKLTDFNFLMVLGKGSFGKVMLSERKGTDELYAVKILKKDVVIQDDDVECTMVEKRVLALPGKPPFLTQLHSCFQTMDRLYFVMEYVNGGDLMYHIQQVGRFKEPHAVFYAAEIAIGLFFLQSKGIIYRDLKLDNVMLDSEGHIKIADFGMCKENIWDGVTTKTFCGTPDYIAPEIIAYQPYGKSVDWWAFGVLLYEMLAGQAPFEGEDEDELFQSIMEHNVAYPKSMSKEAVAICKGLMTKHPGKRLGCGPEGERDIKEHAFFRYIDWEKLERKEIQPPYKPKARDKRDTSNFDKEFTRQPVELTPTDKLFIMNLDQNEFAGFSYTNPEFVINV
protocolConditions: at 0.1 µM
Description: GSK_PKIS: PKC-beta1 (splice variant) mean inhibition at 0.1 uM [Nanosyn]
measuredQuantity: inhibition (%)

COC(=O)c1cncc(/C=C/c2c(C)cc(O)cc2C)c1: 0.78
Nc1nccc(C#Cc2cncnc2Nc2ccc(OCc3cccc(F)c3)c(Cl)c2)n1: 2.69
Cc1ccc2c(-c3ccnc(Nc4ccc5c(c4)OCCO5)n3)c(-c3ccc(C(F)(F)F)cc3)nn2n1: 2.2

* * *

Items are presented alongside their recorded inhibition.
system: Serine/threonine-protein kinase B-raf (Homo sapiens) (UniProt P15056);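 also: mean percent inhibition of BRAF kinase activity, from the GSK PKIS kinase inhibitor screening set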
Sequence (P15056 whole entry): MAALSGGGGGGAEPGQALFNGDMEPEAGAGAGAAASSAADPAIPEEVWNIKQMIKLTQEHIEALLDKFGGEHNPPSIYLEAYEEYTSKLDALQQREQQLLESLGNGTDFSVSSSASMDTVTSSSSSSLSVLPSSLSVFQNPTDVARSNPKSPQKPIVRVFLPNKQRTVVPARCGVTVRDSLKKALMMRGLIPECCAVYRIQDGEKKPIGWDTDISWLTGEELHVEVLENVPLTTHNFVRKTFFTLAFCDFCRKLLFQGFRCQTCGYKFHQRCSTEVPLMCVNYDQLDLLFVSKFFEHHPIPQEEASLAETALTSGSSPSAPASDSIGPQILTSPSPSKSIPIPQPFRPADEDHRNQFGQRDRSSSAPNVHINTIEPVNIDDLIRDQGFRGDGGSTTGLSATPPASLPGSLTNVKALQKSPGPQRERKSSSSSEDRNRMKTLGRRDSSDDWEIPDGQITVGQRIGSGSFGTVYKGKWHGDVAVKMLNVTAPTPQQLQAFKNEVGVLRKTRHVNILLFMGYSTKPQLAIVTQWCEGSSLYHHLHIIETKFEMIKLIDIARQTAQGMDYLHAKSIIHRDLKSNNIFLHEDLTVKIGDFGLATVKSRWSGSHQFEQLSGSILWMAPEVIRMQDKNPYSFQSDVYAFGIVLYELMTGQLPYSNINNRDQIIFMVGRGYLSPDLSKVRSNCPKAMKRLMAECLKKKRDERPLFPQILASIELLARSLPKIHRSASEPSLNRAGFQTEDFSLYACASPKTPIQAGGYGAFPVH
protocolConditions: at 0.1 µM
measuredQuantity: inhibition (%)

COC(=O)c1ccc2c(c1)C(=Cc1cc(Br)c(O)c(Br)c1)C(=O)N2: 9.11
Cc1ccc(Nc2ccnc(Nc3cccc(C(N)=O)c3)n2)cc1O: 6.53
COC(=O)c1cncc(/C=C/c2c(C)cc(O)cc2C)c1: 6.07
Cc1ccc2c(-c3ccnc(Nc4cccc(C(F)(F)F)c4)n3)c(-c3ccccc3)nn2n1: 6.35
CCn1c(-c2nonc2N)nc2ccc(F)cc21: 8.45
NS(=O)(=O)c1cccc(Nc2cc(-c3ccc(F)cc3)n[nH]2)c1: 5.14
Cc1cc(Cl)cc2c1NC(=O)C2=NNc1ccc(S(N)(=O)=O)cc1: 4.13
CS(=O)(=O)CCNCc1nc(-c2ccc3ncnc(Nc4ccc(OCc5cccc(C(F)(F)F)c5)cc4)c3c2)cs1: 1.81
Cc1ccc(C(=O)NC2CC2)cc1-c1ccc2[nH]ncc2c1: -6.03
N#Cc1cccc(Nc2nccc(-c3cnn4ncccc34)n2)c1: 19.5
COc1ccc(-c2nn3ncccc3c2-c2ccnc(Nc3cccc(C(F)(F)F)c3)n2)cc1: 4.3
COc1cc2ncnc(Nc3ccc(C)c(O)c3)c2cc1OC: 8.83
COC(=O)Nc1nc2cc(Oc3ccc(NC(=O)Nc4cccc(Br)c4)cc3)ccc2[nH]1: 13
CS(=O)(=O)Nc1cccc(-c2ccc3c(NC(=O)C4CC4)n[nH]c3c2)c1: 1.25
OCc1ccc(-c2nc(-c3ccccn3)c(-c3ccc4c(c3)OCO4)[nH]2)cc1: 5.65
CC(C)c1ccc(Nc2nccc(-c3cnn4ncccc34)n2)cc1: 4.59
O=S(=O)(CCOCc1ccc(-c2ccc3ncnc(Nc4ccc(OCc5cccc(F)c5)c(Cl)c4)c3c2)o1)c1ccccc1: 2.33
FC(F)(F)c1ccc(-c2nn3ncccc3c2-c2ccnc(Nc3ccc4c(c3)OCCO4)n2)cc1: -1.63
NS(=O)(=O)c1ccc(N/N=C2\C(=O)Nc3ccc(Cl)cc32)cc1: 4.45
NS(=O)(=O)c1ccc(Nc2cc(-c3cccc(O)c3)n[nH]2)cc1: 7.97
CN(C)C(=O)O[C@@H]1CN[C@@H](C#Cc2cc3ncnc(Nc4ccc(OCc5cccc(F)c5)c(Cl)c4)c3s2)C1: 0.07
Cc1ccc(NC(=O)CC2CC2)cc1-c1ccc(C(=O)NCC2CC2)cc1: 4.43
COc1cccc(-n2ncc3c(N/N=C/c4ccc(S(C)(=O)=O)cc4)ncnc32)c1: 7.5
NS(=O)(=O)c1ccc(NC=C2C(=O)Nc3ccc4ncsc4c32)cc1: 15.4
Nc1nccc(-c2c(-c3ccc(F)cc3)ncn2CCCN2CCOCC2)n1: 5.83
NC(=O)c1cccc(Nc2nccc(Nc3cccc(F)c3)n2)c1: 0.82
CCn1c(-c2nonc2N)nc2c(C#CC(C)(C)O)nc(OCCNC)cc21: 6.22
COc1cccc(-n2nc(C)c3c(N/N=C(\C)c4ccncc4)ncnc32)c1: 0.14
Cc1cc(O)cc(C)c1/C=C/c1cncc(C(=O)N(C)C)c1: 3.04
Nc1nccc(-c2c(-c3ccc(F)cc3)nn3cc(C(F)(F)F)ccc23)n1: 0.06
COc1cc2ncn(-c3cc(OCc4ccccc4S(C)(=O)=O)c(C#N)s3)c2cc1OC: 5.38
COc1ccc2ncnc(Nc3ccc(OCc4ccccc4)cc3)c2c1: 3.6
NS(=O)(=O)c1cccc(-c2cc3ccncc3cc2OCc2ccccc2)c1: 6.76
CN(C)CCCn1c(-c2nonc2N)nc2cnccc21: 5.59
COc1cc2ncnc(Nc3ccc4c(cnn4Cc4ccccc4)c3)c2cc1OC: 3.75
COc1cc(/C=N/Nc2ncnc3c2cnn3C(C)C)ccc1O: 2.16
N#Cc1c(NC(=O)c2ccccc2F)sc2c1CCCC2: -1.34
Cc1ccc(O)cc1Nc1ccnc2ccc(S(C)(=O)=O)cc12: 15.3
O=C1Nc2ccccc2/C1=C/Nc1ccc2[nH]c(=O)[nH]c2c1: 9.63
Cc1cc(-c2ccccn2)cc(C)c1/C=C/c1cncc(-c2nn[nH]n2)c1: 5.62
CCS(=O)(=O)c1ccc(OC)c(Nc2nccc(N(C)c3ccc4c(C)n[nH]c4c3)n2)c1: 6.4
Oc1cccc(-c2nc(-c3ccccc3)[nH]c2-c2ccncc2)c1: 14.5

* * *

Items are presented alongside their recorded inhibition.
system: Serine/threonine-protein kinase pim-2 (Homo sapiens);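 also: reported value is the mean percent inhibition of PIM2, measured in the GSK PKIS kinase inhibitor set screen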
protocolConditions: at 0.1 µM
measuredQuantity: inhibition (%)

CN(C)CCCn1c(-c2nonc2N)nc2cnccc21: -0.04
COc1cc2ncn(-c3cc(OCc4ccccc4S(C)(=O)=O)c(C#N)s3)c2cc1OC: 0.9
CN(c1ccc(NC(=O)Nc2ccc(OC(F)(F)F)cc2)cc1)c1ccnc(Nc2cccc(S(N)(=O)=O)c2)n1: 0.55
COc1ccc(-c2nn3ncccc3c2-c2ccnc(Nc3cccc(C(F)(F)F)c3)n2)cc1: 0.02
c1ccc(Nc2ncc(-c3ccccc3)o2)cc1: -1.31

* * *

system: Tyrosine-protein kinase receptor UFO (Homo sapiens) (UniProt P30530);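 also: values are mean percent inhibition of AXL from the GSK PKIS screen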
Sequence (P30530 whole entry): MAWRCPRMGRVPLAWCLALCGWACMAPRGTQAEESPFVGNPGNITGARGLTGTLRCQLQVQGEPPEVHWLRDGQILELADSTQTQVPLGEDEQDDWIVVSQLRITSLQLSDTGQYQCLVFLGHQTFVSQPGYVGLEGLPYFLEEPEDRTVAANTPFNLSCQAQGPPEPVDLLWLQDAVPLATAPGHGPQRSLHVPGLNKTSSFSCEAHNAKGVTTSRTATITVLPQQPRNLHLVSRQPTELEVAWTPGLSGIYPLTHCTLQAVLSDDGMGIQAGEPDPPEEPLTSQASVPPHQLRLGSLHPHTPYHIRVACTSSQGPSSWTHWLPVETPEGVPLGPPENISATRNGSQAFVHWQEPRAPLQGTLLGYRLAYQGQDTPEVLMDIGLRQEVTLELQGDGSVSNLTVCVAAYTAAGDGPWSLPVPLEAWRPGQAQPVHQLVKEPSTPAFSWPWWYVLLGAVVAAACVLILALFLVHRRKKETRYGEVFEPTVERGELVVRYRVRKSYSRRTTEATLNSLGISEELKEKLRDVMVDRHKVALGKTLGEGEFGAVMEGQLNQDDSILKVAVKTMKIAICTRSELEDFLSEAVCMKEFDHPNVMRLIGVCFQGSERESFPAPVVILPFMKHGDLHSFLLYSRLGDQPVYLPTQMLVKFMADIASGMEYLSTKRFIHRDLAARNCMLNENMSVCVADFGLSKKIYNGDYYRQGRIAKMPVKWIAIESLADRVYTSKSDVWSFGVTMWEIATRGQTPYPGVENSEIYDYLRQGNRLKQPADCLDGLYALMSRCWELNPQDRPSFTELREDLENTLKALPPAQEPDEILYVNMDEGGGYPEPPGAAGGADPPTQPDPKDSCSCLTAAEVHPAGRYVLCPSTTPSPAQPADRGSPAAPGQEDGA
protocolConditions: at 0.1 µM
Items are presented alongside their recorded inhibition.
measuredQuantity: inhibition (%)

NS(=O)(=O)c1cccc(Nc2cc(-c3ccc(F)cc3)n[nH]2)c1: -0.57
O=S(=O)(CCOCc1ccc(-c2ccc3ncnc(Nc4ccc(OCc5cccc(F)c5)c(Cl)c4)c3c2)o1)c1ccccc1: -0.96
CN(C)CCCn1c(-c2nonc2N)nc2cnccc21: -7.29
CCS(=O)(=O)c1ccc(OC)c(Nc2nccc(N(C)c3ccc4c(C)n[nH]c4c3)n2)c1: -6.66

* * *

system: Protein kinase C alpha type (Homo sapiens) (UniProt P17252);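 also: reported value is the mean inhibition, measured within the GSK PKIS screening panel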
protocolConditions: at 1 µM
Items are presented alongside their recorded inhibition.
measuredQuantity: inhibition

COc1cc2ncnc(Nc3ccc4c(cnn4Cc4ccccc4)c3)c2cc1OC: 0.88%
Cc1cc(O)cc(C)c1/C=C/c1cncc(C(=O)N(C)C)c1: 1.71%
NC(=O)c1sc(-n2cnc3ccccc32)cc1OCc1ccccc1Br: 2.92%
Nc1ccc(C#Cc2cncnc2Nc2ccc(OCc3cccc(F)c3)c(Cl)c2)cc1: 1.03%
NC(=O)c1cccc(Nc2nccc(Nc3cccc(F)c3)n2)c1: 4.54%
C[C@@H](Oc1cc(-n2cnc3ccc(OC[C@@H](O)CO)cc32)sc1C(N)=O)c1ccccc1Cl: 3.02%
COc1ccc2ncnc(Nc3ccc(OCc4ccccc4)cc3)c2c1: 1.22%
COc1cc2ncn(-c3cc(OCc4ccccc4S(C)(=O)=O)c(C#N)s3)c2cc1OC: 2.72%
Cc1ccc(C(=O)NC2CC2)cc1-c1ccc2[nH]ncc2c1: 0.07%
Oc1cccc(-c2nc(-c3ccccc3)[nH]c2-c2ccncc2)c1: 3.01%
OCc1ccc(-c2nc(-c3ccccn3)c(-c3ccc4c(c3)OCO4)[nH]2)cc1: 2.06%
N#Cc1cccc(Nc2nccc(-c3cnn4ncccc34)n2)c1: 72.8%
COc1cccc(-n2nc(C)c3c(N/N=C(\C)c4ccncc4)ncnc32)c1: -1.11%
COc1cc(Nc2nccc(-c3cnn4ncccc34)n2)cc(OC)c1: 64%
NS(=O)(=O)c1ccc(Nc2cc(-c3cccc(O)c3)n[nH]2)cc1: 1.85%
ON=C1CCc2cc(-c3nc(C4CCNCC4)[nH]c3-c3ccncc3)ccc21: 2.47%
Cc1ccc2c(-c3ccnc(Nc4cccc(C(F)(F)F)c4)n3)c(-c3ccccc3)nn2n1: 10.6%
CCS(=O)(=O)c1ccc(OC)c(Nc2ncc(-c3cccc(OC)c3)o2)c1: 5.21%
NS(=O)(=O)c1cccc(Nc2cc(-c3ccc(F)cc3)n[nH]2)c1: 1.69%
COc1ccc(-c2nn3ncccc3c2-c2ccnc(Nc3cccc(C(F)(F)F)c3)n2)cc1: 1.31%
COc1cccc(-n2ncc3c(N/N=C/c4ccc(C)cc4)ncnc32)c1: 1.66%
O=S(=O)(CCOCc1ccc(-c2ccc3ncnc(Nc4ccc(OCc5cccc(F)c5)c(Cl)c4)c3c2)o1)c1ccccc1: 0.58%
NS(=O)(=O)c1ccc(N/N=C2\C(=O)Nc3ccc(Cl)cc32)cc1: 1.45%
NS(=O)(=O)c1cccc(-c2cc3ccncc3cc2OCc2ccccc2)c1: 1.96%
Cc1ccc(Nc2ccnc(Nc3cccc(C(N)=O)c3)n2)cc1O: 8.24%
N#Cc1c(NC(=O)c2ccccc2F)sc2c1CCCC2: 1.15%
COc1cc(/C=N/Nc2ncnc3c2cnn3C(C)C)ccc1O: 2.74%
CCOc1nccc2c1nc(-c1nonc1N)n2CC: 1.03%
CS(=O)(=O)Nc1cccc(-c2ccc3c(NC(=O)C4CC4)n[nH]c3c2)c1: 1.61%
Nc1nccc(-c2c(-c3ccc(F)cc3)ncn2CCCN2CCOCC2)n1: 4.5%
Cc1cc(Cl)cc2c1NC(=O)C2=NNc1ccc(S(N)(=O)=O)cc1: -0.61%
